# experimentalSystem: cholera toxin B-subunit (Vibrio cholerae serotype O1)
# Sequence (P01556 22-124 limits assumed): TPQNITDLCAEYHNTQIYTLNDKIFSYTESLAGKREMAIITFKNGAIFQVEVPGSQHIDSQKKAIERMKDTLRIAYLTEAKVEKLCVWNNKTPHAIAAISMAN
# procedureDetails: biochemical
# Format: binding
# experimentalSetup: IC50 (μg/mL)
pIC50: −log10 of the molar value.

[
  {
    "smilesCode": "O=C[C@H](O)[C@@H](O)[C@@H](O)[C@H](O)CO",
    "pIC50": 0.95
  }
]
